Tested on: HCT116, HepG2, HeLa, MCF7 cancer cell lines
Assay: MTT assay, ranges over the cancer cell line panel
Conditions: Homo sapiens, read-out: IC50 range over the tested cancer cell lines
RESULT TYPE: IC50

COMPOUND | IC50
NS(=O)(=O)c1cccc(Nc2nccc(-c3ccc(C(F)(F)F)cc3)n2)c1 [Compound 5d] | 1 to 10 µM

Okay, next one:
Give HCT116, HepG2, HeLa, MCF7 cancer cell lines IC50 for NS(=O)(=O)c1cccc(Nc2nccc(-c3ccccc3)n2)c1 [Compound 5a]
1 to 10 µM

----------
Tested on: HepG2 (hepatocellular carcinoma)
Assay: MTT antiproliferative assay, HepG2
Settings: Homo sapiens, HepG2, read-out: IC50 (µM) HepG2
RESULT TYPE: IC50 (µM)

Examples with their reported IC50 follow.
COMPOUND | IC50 [µM]
N#Cc1cnc(Nc2cccc(S(N)(=O)=O)c2)nc1-c1ccc(F)cc1 [Compound 5l] | 56.2
Nc1nccc(-c2ccc(C(F)(F)F)cc2)n1 [Compound 3d] | 91.7
NS(=O)(=O)c1cccc(Nc2nccc(-c3ccncc3)n2)c1 [Compound 5i] | 52.6
N#Cc1cnc(Nc2cccc(S(N)(=O)=O)c2)nc1-c1ccc(Cl)cc1 [Compound 5k] | 48.6

a = N#Cc1cnc(Nc2ccccc2)nc1-c1ccccc1 [Compound 5m]
b = Nc1nccc(-c2ccc(OC(F)(F)F)cc2)n1 [Compound 3e]
Smaller IC50 value, a vs b ? Reply briefly: the label of your chosen item.
b
(b: 39.1 µM, a: 88.4 µM)

A = NS(=O)(=O)c1cccc(Nc2nccc(-c3ccc(C(F)(F)F)cc3)n2)c1 [Compound 5d]
B = N#Cc1cnc(N)nc1-c1ccc(Cl)cc1 [Compound 3g]
Smaller IC50 value, A vs B ? Reply briefly: the label of your chosen item.
A
(A: 11.7 µM, B: 44.2 µM)

a = NS(=O)(=O)c1cccc(Nc2nccc(-c3ccc(Cl)cc3)n2)c1 [Compound 5b]
b = COc1ccc(-c2ccnc(Nc3cccc(S(N)(=O)=O)c3)n2)cc1 [Compound 5c]
Hi, I'm comparing a with b and wondering which one has the bigger number for IC50. Any idea? Reply briefly: the label of your chosen item.
a
(a: 40.9 µM, b: 24.4 µM)

I = Nc1nccc(-c2ccc(Cl)cc2)n1 [Compound 3b, 4-(4-chlorophenyl)pyrimidin-2-amine]
II = NS(=O)(=O)c1cccc(Nc2nccc(-c3ccc([N+](=O)[O-])cc3)n2)c1 [Compound 5g]
III = NS(=O)(=O)c1cccc(Nc2nccc(-c3ccccc3)n2)c1 [Compound 5a]
// smallest IC50 at index 0, largest at the end Give the labels in the order specified.
III, I, II
(III: 7.84 µM, I: 18.9 µM, II: 84.6 µM)

a = NS(=O)(=O)c1cccc(Nc2nccc(-c3cnccn3)n2)c1 [Compound 5j]
b = COc1cccc2c1C(=O)c1c(O)c3c(c(O)c1C2=O)C[C@@](O)(C(=O)CO)C[C@@H]3O[C@H]1C[C@H](N)[C@H](O)[C@H](C)O1 [DOX, Doxorubicin, reference compound]
Hi, I'm comparing a with b and wondering which one has the bigger number for IC50. Any idea? Reply briefly: the label of your chosen item.
a

----------
Molecular target: CDK9/CycT1 (Homo sapiens, UniProt P50750)
Sequence (P50750 whole entry): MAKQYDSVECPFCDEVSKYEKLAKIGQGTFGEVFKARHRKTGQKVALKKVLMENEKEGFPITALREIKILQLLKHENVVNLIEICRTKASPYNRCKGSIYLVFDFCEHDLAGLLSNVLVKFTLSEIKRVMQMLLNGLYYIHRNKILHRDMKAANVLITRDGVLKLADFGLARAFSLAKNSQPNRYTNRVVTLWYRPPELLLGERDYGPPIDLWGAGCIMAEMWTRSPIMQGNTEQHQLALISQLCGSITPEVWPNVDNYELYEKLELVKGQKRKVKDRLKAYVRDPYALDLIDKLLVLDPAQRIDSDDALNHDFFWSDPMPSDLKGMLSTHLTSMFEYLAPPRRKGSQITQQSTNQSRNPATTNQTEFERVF
Sequence (O60563 whole entry partner): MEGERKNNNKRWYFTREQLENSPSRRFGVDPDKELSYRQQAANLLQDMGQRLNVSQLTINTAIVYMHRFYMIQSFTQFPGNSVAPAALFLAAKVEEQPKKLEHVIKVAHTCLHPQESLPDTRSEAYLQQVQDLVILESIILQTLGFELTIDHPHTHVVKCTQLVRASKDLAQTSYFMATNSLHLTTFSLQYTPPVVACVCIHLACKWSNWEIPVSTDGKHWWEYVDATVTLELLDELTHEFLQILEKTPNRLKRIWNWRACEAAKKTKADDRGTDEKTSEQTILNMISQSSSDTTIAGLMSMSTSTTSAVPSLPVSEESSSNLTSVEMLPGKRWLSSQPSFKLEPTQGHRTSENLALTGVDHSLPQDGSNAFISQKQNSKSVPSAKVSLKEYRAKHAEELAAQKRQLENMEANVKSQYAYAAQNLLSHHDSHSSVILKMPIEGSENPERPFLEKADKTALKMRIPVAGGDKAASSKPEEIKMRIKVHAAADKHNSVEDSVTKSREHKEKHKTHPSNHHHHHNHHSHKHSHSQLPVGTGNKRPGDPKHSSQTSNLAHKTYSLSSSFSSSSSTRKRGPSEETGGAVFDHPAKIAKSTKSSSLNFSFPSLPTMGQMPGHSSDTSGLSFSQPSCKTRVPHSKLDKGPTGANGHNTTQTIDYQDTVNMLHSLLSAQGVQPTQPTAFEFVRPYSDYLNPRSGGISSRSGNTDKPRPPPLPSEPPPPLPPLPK
Assay: Ligand efficiency and ligand lipophilic efficiency (DataWarrior)
Conditions: LLE=pIC50−clogP
RESULT TYPE: LLE

Examples with their reported LLE follow.
SAMPLE SMILES | LLE
N#Cc1cnc(Nc2cccc(S(N)(=O)=O)c2)nc1-c1ccc(Cl)cc1 | 3.4615
NS(=O)(=O)c1cccc(Nc2nccc(-c3ccc(Cl)cc3)n2)c1 | 3.3262
N#Cc1cnc(Nc2ccccc2)nc1-c1ccccc1 | 2.9828

I = NS(=O)(=O)c1cccc(Nc2nccc(-c3ccccn3)n2)c1
II = NS(=O)(=O)c1cccc(Nc2nccc(-c3ccc(C(F)(F)F)cc3)n2)c1
Smaller LLE value, I vs II ? Reply briefly: the label of your chosen item.
II
(II: 3.0453, I: 4.8844)
